- System: Pseudomonas aeruginosa PAO1
- Assay Name: ≥ marks a high value that may be exact or a test limit, other limits are often not marked, values filed in µg/mL are converted to µM
Measured Parameter: MIC (µM)

1) CC(C)C[C@H](NC(=O)CNC(=O)[C@H](CC(C)C)NC(=O)[C@H](Cc1c[nH]c2ccccc12)NC(=O)[C@H](CC(C)C)NC(=O)CNC(=O)[C@H](CC(C)C)NC(=O)[C@H](CCCCN)NC(=O)[C@@H](N)CCCCN)C(=O)N[C@@H](CCCCN)C(=O)N[C@@H](CCCCN)C(N)=O [KKLGLWLGLKK] | 64
2) CC[C@H](C)[C@H](NC(=O)[C@H](CCCCN)NC(=O)[C@H](CCCCN)NC(=O)[C@H](Cc1ccccc1)NC(=O)[C@H](CCCCN)NC(=O)[C@H](CCCCN)NC(=O)[C@H](Cc1c[nH]c2ccccc12)NC(=O)[C@@H](N)CCCCN)C(=O)NCC(=O)N[C@@H](C)C(=O)N[C@H](C(=O)N[C@@H](CC(C)C)C(=O)N[C@@H](CCCCN)C(=O)N[C@H](C(=O)N[C@@H](CC(C)C)C(=O)O)C(C)C)C(C)C [KWKKFKKIGAVLKVL] | 0.707
